// data source = patent US9988375B2

target_under_test: trypsin (Homo sapiens (Human))
pIC50: −log10 of the molar value.

- compound: "NCCCC[C@H](NC(=O)C1CCCCC1)C(=O)c1nc2ccccc2s1 [Compound 2]"
  pIC50: 5.30

----------
target_under_test: lysine gingipain (Kgp) (Porphyromonas gingivalis (strain ATCC 33277 / DSM 20709 / CIP 103683 / JCM 12257 / NCTC 11834 / 2561))
assay_protocol: Lysine gingipain (Kgp) fluorogenic inhibition assay
Assay type: biochemical
stated_conditions: 0.1 nM Kgp, 10 uM Z-His-Glu-Lys-MCA, 90 minutes, 37° C., pH 7.5; read-out: Kgp IC50 average
IC50 overview
assay_readout: IC50

- compound: "NCCCC[C@H](NC(=O)[C@@H]1CCCN(C(=O)CCc2ccccc2)C1)C(=O)c1nc2ccccc2s1"
  observed_result: "1 to 10 nM"
- compound: "NCCCC[C@H](NC(=O)C1CCCC1)C(=O)c1nccs1"
  observed_result: "50 to 100 nM"
- compound: "NCCCC[C@H](NC(=O)OCc1ccccc1)C(=O)c1nc2ccccc2s1"
  observed_result: "100 to 250 nM"
- compound: "NCCCC[C@H](NC(=O)c1cncs1)C(=O)c1nc2ccccc2s1"
  observed_result: "10 to 25 nM"
- compound: "NCCCC[C@H](NC(=O)C1CCCC1)C(=O)c1ccccn1"
  observed_result: "> 250 nM"
- compound: "NCCCC[C@H](NC(=O)C1CCc2ccccc2C1)C(=O)c1nc2ccccc2s1 (some centres unmarked)"
  observed_result: "1 to 10 nM"
- compound: "CC(=O)N1CCOC(C(=O)N[C@@H](CCCCN)C(=O)c2nc3ccccc3s2)C1 (some centres unmarked)"
  observed_result: "10 to 25 nM"
- compound: "NCCCC[C@H](NC(=O)C1CCCOC1)C(=O)c1nc2ccccc2s1 (single isomer, unassigned) [Compound 18]"
  observed_result: "10 to 25 nM"
- compound: "NCCCC[C@H](NC(=O)c1cccc(=O)[nH]1)C(=O)c1nc2ccccc2s1"
  observed_result: "25 to 50 nM"
- compound: "NCCCC[C@H](NC(=O)[C@H]1CCCN(C(=O)CCc2ccccc2)C1)C(=O)c1nc2ccccc2s1"
  observed_result: "10 to 25 nM"
- compound: "CC1(C(=O)N[C@@H](CCCCN)C(=O)c2nc3ccccc3s2)CCCCC1"
  observed_result: "1 to 10 nM"
- compound: "NCCCC[C@H](NC(=O)c1cccnc1)C(=O)c1nc2ccccc2s1"
  observed_result: "25 to 50 nM"
- compound: "NCCCC[C@H](NC(=O)C1CCCO1)C(=O)c1nc2ccccc2s1 (single isomer, unassigned) [Compound 35]"
  observed_result: "1 to 10 nM"
- compound: "NCCCCC(NC(=O)[C@@H]1CCCN(C(=O)CCc2ccccc2)C1)C(=O)c1nc2ccccc2s1 (single isomer, unassigned) [Compound 14]"
  observed_result: "1 to 10 nM"
- compound: "NCCCC[C@H](NC(=O)C1CCCO1)C(=O)c1nc2ccccc2s1 (single isomer, unassigned) [Compound 34]"
  observed_result: "1 to 10 nM"
- compound: "CC(=O)N1CCC[C@H](C(=O)N[C@H](CCCCN)C(=O)c2nc3ccccc3s2)C1"
  observed_result: "10 to 25 nM"
- compound: "NCCCC[C@H](NC(=O)c1ccncc1)C(=O)c1nc2ccccc2s1"
  observed_result: "25 to 50 nM"
- compound: "NCCCC[C@H](NC(=O)c1ccccn1)C(=O)c1nc2ccccc2s1"
  observed_result: "50 to 100 nM"
- compound: "NCCCC[C@H](NC(=O)C1CCCc2ccccc21)C(=O)c1nc2ccccc2s1 (some centres unmarked)"
  observed_result: "10 to 25 nM"
- compound: "COC1(C(=O)N[C@@H](CCCCN)C(=O)c2nc3ccccc3s2)CCCCC1"
  observed_result: "10 to 25 nM"
- compound: "NCCCC[C@H](NC(=O)c1nccs1)C(=O)c1nc2ccccc2s1"
  observed_result: "50 to 100 nM"
- compound: "NCCCC[C@H](NC(=O)C1CCCC1)C(=O)COc1c(F)c(F)cc(F)c1F"
  observed_result: "≤ 1 nM"
- compound: "CC(=O)N1CCC[C@@H](C(=O)N[C@H](CCCCN)C(=O)c2nc3ccccc3s2)C1"
  observed_result: "1 to 10 nM"
- compound: "NCCCC[C@H](NC(=O)C1CCCCO1)C(=O)c1nc2ccccc2s1 (single isomer, unassigned) [Compound 26]"
  observed_result: "25 to 50 nM"
- compound: "CC(=O)N1CCC[C@@H](C(=O)N[C@@H](CCCCN)C(=O)c2nc3ccccc3s2)C1"
  observed_result: "1 to 10 nM"
- compound: "NCCCCC(NC(=O)[C@@H]1CCCN(C(=O)CCc2ccccc2)C1)C(=O)c1nc2ccccc2s1 (single isomer, unassigned) [Compound 15]"
  observed_result: "1 to 10 nM"
- compound: "NCCCC[C@H](NC(=O)C1CCCC1)C(=O)c1nc2ccccc2s1"
  observed_result: "1 to 10 nM"
- compound: "NCCCC[C@H](NC(=O)C1CCCCO1)C(=O)c1nc2ccccc2s1 (single isomer, unassigned) [Compound 25]"
  observed_result: "25 to 50 nM"
- compound: "CC(=O)N1CCC[C@H](C(=O)N[C@@H](CCCCN)C(=O)c2nc3ccccc3s2)C1"
  observed_result: "10 to 25 nM"
- compound: "NCCCC[C@H](NC(=O)C1CCOCC1)C(=O)c1nc2ccccc2s1"
  observed_result: "10 to 25 nM"
- compound: "NCCCC[C@H](NC(=O)c1ccccc1C(F)(F)F)C(=O)c1nc2ccccc2s1"
  observed_result: "25 to 50 nM"
- compound: "NCCCC[C@H](NC(=O)C1CCCOC1)C(=O)c1nc2ccccc2s1 (single isomer, unassigned) [Compound 19]"
  observed_result: "10 to 25 nM"
